- assay text: in vivo
- assay setup: rat, in vivo, iv, 3 mg/kg, AUC)-t or infinity
observation type: AUC (µg·h/mL)
I only need the number, in µg·h/mL, no unit after it.

Quick one: give measured AUC for O=C(Nc1cccc2c(=O)cc(-c3nnn[nH]3)oc12)c1ccc(OCCCCc2ccccc2)cc1 2850

###

- assay text: in vivo
- assay setup: rat, in vivo, po, 20 mg/kg, TMAX
observation type: TMAX (min)
Answer in min, number only, no unit symbol.

Identify the reported TMAX for the following entry. O=C(Nc1cccc2c(=O)cc(-c3nnn[nH]3)oc12)c1ccc(OCCCCc2ccccc2)cc1 53.1

###

- assay text: Solubility of Compound 1 in 50% solvent systems/50% sodium phosphate (pH7) at different molarities
- Format: physicochemical
- assay setup: 50% propylene glycol/0.5m sodium phosphate, pH 7, organic solvent or mixture; 50% propylene glycol / 50% sodium phosphate pH7, 0.5M
observation type: solubility

Supply solubility value. Item: O=C(Nc1cccc2c(=O)cc(-c3nnn[nH]3)oc12)c1ccc(OCCCCc2ccccc2)cc1 500 µg/mL

###

- assay text: Solubility of Compound 1 in 50% solvent systems/50% sodium phosphate (pH7) at different molarities
- Format: physicochemical
- assay setup: 50% glycerol/0.25m sodium phosphate, pH 7, organic solvent or mixture; 50% glycerol / 50% sodium phosphate pH7, 0.25M
observation type: solubility (µg/mL)
State the answer as a number, implicitly in µg/mL.

Please give measured solubility of the following entry: O=C(Nc1cccc2c(=O)cc(-c3nnn[nH]3)oc12)c1ccc(OCCCCc2ccccc2)cc1 50

###

- assay text: Solubility of Compound 1 in 50% solvent systems/50% sodium phosphate (pH7) at different molarities
- Format: physicochemical
- assay setup: 50% propylene glycol/0.25m sodium phosphate, pH 7, organic solvent or mixture; 50% propylene glycol / 50% sodium phosphate pH7, 0.25M
observation type: solubility (µg/mL)
# value in µg/mL; strip the unit string

Give reported solubility value for O=C(Nc1cccc2c(=O)cc(-c3nnn[nH]3)oc12)c1ccc(OCCCCc2ccccc2)cc1 700

###

- assay text: in vivo
- assay setup: rat, in vivo, po, 20 mg/kg, absolute bioavailability
observation type: bioavailability

Give bioavailability for the following compound: O=C(Nc1cccc2c(=O)cc(-c3nnn[nH]3)oc12)c1ccc(OCCCCc2ccccc2)cc1 [Ammonium] ~7%

###

- assay text: Solubility of Compound 1 in 50% solvent systems/50% sodium phosphate (pH7) at different molarities
- Format: physicochemical
- assay setup: 50% n-propanol/0.1m sodium phosphate, pH 7, organic solvent or mixture; 50% n-propanol / 50% sodium phosphate pH7, 0.1M
observation type: solubility (mg/mL)
Give the number; mg/mL is assumed, so skip it.

Find the measured solubility of O=C(Nc1cccc2c(=O)cc(-c3nnn[nH]3)oc12)c1ccc(OCCCCc2ccccc2)cc1 [Compound 1] and report it. 18

###

- assay text: In-situ solubilisation: solubility of Compound 1 in 50% acetate solution (0.1M) / 50% ethanol
- Type: physicochemical
- assay setup: 0.1m sodium acetate/ethanol 50:50, organic solvent or mixture; sodium acetate 0.1M 50% / ethanol 50%
observation type: solubility

Quote solubility reported for O=C(Nc1cccc2c(=O)cc(-c3nnn[nH]3)oc12)c1ccc(OCCCCc2ccccc2)cc1 please. 11 mg/mL

###

- assay text: in vivo
- assay setup: rat, in vivo, iv, 3 mg/kg
observation type: half-life (min)
Numbers only here, please. The scale is min.

Fill in reported half-life for this entry: O=C(Nc1cccc2c(=O)cc(-c3nnn[nH]3)oc12)c1ccc(OCCCCc2ccccc2)cc1 [Compound 1] 23.2
